assay: antimalarial activity against Dd2 strain (AID 2302);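 note: 0% = DMSO untreated growth and 100% = chloroquine plus artemisinin killed control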; conditions: P. falciparum Dd2 in RBCs, LDH growth readout, 72 h; at 2 µM; hits give high values
The entries below come with measured growth inhibition values attached.
// note: answer is a bare numeric in %

Examples from the recorded data:
1) CCCCCCn1c2c(c(=N)c3c1CCC3)CCC2 : 83
2) CN(C)CCNCc1cccc(-c2ccc3c(Nc4ccc(Oc5ccccn5)cc4)ccnc3c2)c1 : 100
3) CC(C)(CNCc1ccc(F)c(F)c1)c1nc(-c2ccc(Cl)c(O)c2)c(-c2ccnc(N)n2)[nH]1 : 79
4) Oc1cc(-c2nc(C3(CNCc4ccc(Cl)cc4)CCCCC3)[nH]c2-c2ccncc2)ccc1Cl : 99

*Q* Kindly indicate its recorded growth inhibition. Item: CC(C)(C)c1ccc(CN2CCCCC(NC(=O)c3cc(-c4ccccc4F)cs3)C2)cc1 (stereo not given)
*A* 99
